test-target: UniProt:Q06187
Sequence (Q06187 whole entry): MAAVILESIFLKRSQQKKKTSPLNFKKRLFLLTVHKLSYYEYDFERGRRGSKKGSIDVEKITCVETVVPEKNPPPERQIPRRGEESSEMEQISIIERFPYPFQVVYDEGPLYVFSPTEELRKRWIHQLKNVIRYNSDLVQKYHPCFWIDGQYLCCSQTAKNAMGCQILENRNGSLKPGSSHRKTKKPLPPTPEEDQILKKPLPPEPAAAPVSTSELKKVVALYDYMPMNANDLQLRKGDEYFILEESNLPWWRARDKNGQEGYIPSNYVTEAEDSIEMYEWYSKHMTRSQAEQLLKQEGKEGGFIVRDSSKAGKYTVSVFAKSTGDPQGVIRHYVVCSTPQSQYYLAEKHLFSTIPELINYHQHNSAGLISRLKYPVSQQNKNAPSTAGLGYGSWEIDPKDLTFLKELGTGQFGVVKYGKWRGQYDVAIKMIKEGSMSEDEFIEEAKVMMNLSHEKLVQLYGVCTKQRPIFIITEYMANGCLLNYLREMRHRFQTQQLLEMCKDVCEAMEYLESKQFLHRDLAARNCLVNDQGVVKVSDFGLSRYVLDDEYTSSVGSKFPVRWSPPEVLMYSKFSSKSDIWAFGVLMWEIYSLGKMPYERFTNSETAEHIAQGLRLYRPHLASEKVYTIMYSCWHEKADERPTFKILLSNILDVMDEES
assay-name: BTK enzymatic activity, LANCE TR-FRET assay (Assay Method C)
Format: biochemical
measurement-parameters: LANCE TR-FRET, 50 pM hBTK, 25 μM ATP; class 100-1000 is given as ≧100 nM-<1 μM; read-out: IC50 Btk activity values - Assay Method C
Where a name gives a salt, the structure may show the parent alone.
Recorded IC50, one value per entry.
assay-readout: IC50

> print(dat)
                                    compound     test.target  assay.readout      measured
 1  C[C@H]1CO[C@@H](c2nc(-c3ccc(C(=O)Nc4cc(C(F)(F)F)ccn4)cc3)c3c(N)nccn23)CN1C(=O)C1(C)COC1 [Example 515, TFA salt]  UniProt:Q06187           IC50       < 10 nM
 2  CC1(C(=O)N2CCC[C@@H](c3nc(-c4ccc(C(=O)Nc5cc(C(F)(F)F)ccn5)cc4)c4c(N)ncc(C5(O)COC5)n34)C2)COC1  UniProt:Q06187           IC50  10 to 100 nM
 3  CCN1CCC(c2nc(-c3ccc(C(=O)Nc4cc(C(F)(F)F)ccn4)cc3)c3c(N)nccn23)CC1=O (stereo not shown) [Example 573, TFA salt]  UniProt:Q06187           IC50  10 to 100 nM
 4  Cc1cc(NC(=O)c2ccc(-c3nc([C@@H]4CCCN(C(=O)C5(C)COC5)C4)n4ccnc(N)c34)cc2)ncc1F  UniProt:Q06187           IC50       < 10 nM
 5  COCC(=O)N1CCC[C@@H](c2nc(-c3ccc(C(=O)Nc4cc(C(F)(F)F)ccn4)cc3)c3c(N)ncc(Cl)n23)C1  UniProt:Q06187           IC50       < 10 nM
 6  CC1(C(=O)N2CCC[C@@H](c3nc(-c4ccc(C(=O)Nc5cnsc5)cc4)c4c(N)nccn34)C2)COC1  UniProt:Q06187           IC50  10 to 100 nM
 7  CC1(C(=O)N2CCO[C@@H](c3nc(-c4ccc(C(=O)Nc5cc(C(F)(F)F)ccn5)cc4)c4c(N)ncc(C#N)n34)C2)COC1  UniProt:Q06187           IC50       < 10 nM
 8  CC1(C(=O)N2CCC[C@@H](c3nc(-c4ccc(C(=O)Nc5cscn5)cc4)c4c(N)nccn34)C2)COC1  UniProt:Q06187           IC50  10 to 100 nM
 9  CN1C[C@@H](c2nc(-c3ccc(C(=O)Nc4cc(C(F)(F)F)ccn4)cc3)c3c(N)nccn23)CC[C@H]1C(F)(F)F  UniProt:Q06187           IC50       < 10 nM
10  Cc1cnc(N)c2c(-c3ccc(C(=O)Nc4cc(C(F)(F)F)ccn4)cc3)nc([C@H]3CN(CCO)CCO3)n12 [Example 540, TFA salt]  UniProt:Q06187           IC50       < 10 nM
11  COCCN1CCO[C@@H](c2nc(-c3ccc(C(=O)Nc4cc(C(F)(F)F)ccn4)cc3)c3c(N)nccn23)C1  UniProt:Q06187           IC50       < 10 nM
12  CCOCC(=O)N1CCC[C@@H](c2nc(-c3ccc(C(=O)Nc4cc(C(F)(F)F)ccn4)cc3)c3c(N)nccn23)C1  UniProt:Q06187           IC50       < 10 nM
13  Cc1cnc(N)c2c(-c3ccc(C(=O)Nc4cc(C(F)F)ccn4)cc3)nc([C@@H]3CCCN(C(=O)C4(C)COC4)C3)n12  UniProt:Q06187           IC50       < 10 nM
